Provenance of the data: ChEMBL document CHEMBL1671830

Entries and their measured EC90 follow.
# Test system: Hepatitis C virus
# EXPERIMENTAL_PROTOCOL: Antiviral activity against HCV infected in human HuH7 cells by cell-based replicon assay
# Type: functional, Hepacivirus hominis, Huh-7
# EXPERIMENTAL_SETUP: Hepatitis C virus, Huh-7
EXPERIMENTAL_ENDPOINT: EC90 (nM)

1. CCOC(=O)[C@H](C)NP(=O)(OC[C@H]1O[C@@H](n2cnc3c(NC4CC4)nc(N)nc32)[C@](C)(F)[C@@H]1O)Oc1ccccc1 (stereo partly specified) | 9.8
2. CCOC(=O)[C@H](C)NP(=O)(OC[C@H]1O[C@@H](n2cnc3c(OCCOC)nc(N)nc32)[C@](C)(F)[C@@H]1O)Oc1ccccc1 (stereo partly specified) | 20
3. CCOC(=O)[C@H](C)NP(=O)(OC[C@H]1O[C@@H](n2cnc3c(SCC)nc(N)nc32)[C@](C)(F)[C@@H]1O)Oc1ccccc1 (stereo partly specified) | 47
4. CCCOc1nc(N)nc2c1ncn2[C@@H]1O[C@H](COP(=O)(N[C@@H](C)C(=O)OC)Oc2ccccc2)[C@@H](O)[C@@]1(C)F (stereo partly specified) | 14.6
5. C[C@H](NP(=O)(OC[C@H]1O[C@@H](n2cnc3c(O)nc(N)nc32)[C@](C)(F)[C@@H]1O)Oc1ccccc1)C(=O)OC1CCCCC1 (stereo partly specified) | 446
6. CCOC(=O)[C@H](C)NP(=O)(OC[C@H]1O[C@@H](n2cnc3c(OC)nc(N)nc32)[C@](C)(F)[C@@H]1O)Oc1ccccc1 (stereo partly specified) | 7.4
